tested on: HCT-116; test: Antiproliferative activity against human HCT116 cells assessed as growth inhibition after 78 hrs by WST-1 assay; assay type: functional, cell-based; settings: HCT-116, 78 h
readout: IC50 (µM)

> print(dat)
                      smilesinput  resultnumber
1  CCCCCCCCc1ccc(CCC(N)(CO)CO)cc1             5

---

test system: Rattus norvegicus; test: Immunosuppressive activity in F344 rat lateral thorax transplanted with dorsal skin of LEW rat assessed as increase of skin graft survival time at 3 mg/kg, ip; assay type: functional; conditions: route intraperitoneal
Items are presented alongside their recorded Time.

molecule	Time
CCCCCCCCCCCCCCC(N)(CO)CO	45.5 days
CCCCCCCCc1ccc(CCC(N)(CO)CO)cc1	52 days
C/C=C/C[C@@H](C)[C@@H](O)[C@H]1C(=O)N[C@@H](CC)C(=O)N(C)CC(=O)N(C)[C@@H](CC(C)C)C(=O)N[C@@H](C(C)C)C(=O)N(C)[C@@H](CC(C)C)C(=O)N[C@@H](C)C(=O)N[C@H](C)C(=O)N(C)[C@@H](CC(C)C)C(=O)N(C)[C@@H](CC(C)C)C(=O)N(C)[C@@H](C(C)C)C(=O)N1C	10.8 days
CCCCCCC(O)CCCCCCCCC[C@@H](O)[C@H](O)C(N)(CO)CO (some centres undefined)	11 days

---

experiment: Antiproliferative activity human LNCAP-AI cells assessed as growth inhibition after 78 hrs by WST-1 assay; format: functional, cell-based
pIC50: −log10 of the molar value.
readout: pIC50

> print(dat)
                      smilesinput  readout  resultnumber
1  CCCCCCCCc1ccc(CCC(N)(CO)CO)cc1    pIC50          5.30

---

test system: Rattus norvegicus; test: Toxicity in ip dosed F344 rat lateral thorax transplanted with dorsal skin of LEW rat assessed as concentration required for cause death; format: organism-based; details: in vivo
Items are presented alongside their recorded Activity.
readout: Activity (mg/kg)

> print(dat)
                                   compound   readout    uom  resultnumber
1              CCCCCCCCCCCCCCCCCCC(N)(CO)CO  Activity  mg/kg            10
2                  CCCCCCCCCCCCCCC(N)(CO)CO  Activity  mg/kg            10
3  CCCCCCC(O)CCCCCCCCC[C@@H](O)[C@H](O)C(N)(CO)CO (some centres undefined)  Activity  mg/kg           100
4  CCCCCCC(=O)CCCCCC/C=C/C[C@@H](O)[C@H](O)[C@@](N)(CO)C(=O)O [MYRIOCIN]  Activity  mg/kg             1
